# credit: patent US11135214B2

Assay: TMS crossover study, pharmacokinetic analysis
Type: in vivo, human
Settings: male, human, plasma, oral, 20 mg, Full PK Profile Data Set (N=16), Mean ± SD
Recorded Endpoint: MRT inf (h)
# output: bare number, implied unit h

Exam item: What MRT inf value was documented for this compound, Cc1cc(N2CCc3cc(F)ccc3C2)cc(C)c1NC(=O)CC(C)(C)C [Compound A] ?
Marked response: 102

====

Experiment: Food effect study, oral capsule, plasma PK in non-human primate
Assay type: in vivo, Cynomolgus monkeys
Details: cynomolgus monkey, plasma, oral, 3 mg/kg, Group 1 (fasted), 3 mg/kg, 4 h, N=3; read-out: Mean plasma concentration
Recorded Endpoint: concentration at 4 h (ng/mL)
# output: bare number, implied unit ng/mL

Exam item: What concentration at 4 h value was documented for this molecule, Cc1cc(N2CCc3cc(F)ccc3C2)cc(C)c1NC(=O)CC(C)(C)C [Compound A] ?
Marked response: 16.6
